Recorded values, source patent US8247211B2.

Overview of recorded MIC Streptococcus pneumoniae (GC 1894) for various compounds
system: Streptococcus sp.; assay: In vitro antibacterial evaluation: minimum inhibitory concentration (MIC), broth dilution method; format: cell-based; settings: strain GC 1894

[
  {
    "compound": "CC(c1ccccc1)C1NC(=O)CNC(=O)C(CO)NC(=O)C(C(O)C2CNC(=N)N2C2OC(CO)C(O)C(O)C2O)NC(=O)C(C(O)C2CNC(=N)N2)NC(=O)C(Cc2ccc(OC3OC(CO)C(OC4OC5COC(c6ccc(C(=O)O)cc6)OC5C(O)C4O)C(O)C3O)cc2)NC1=O (stereo not shown)",
    "MIC Streptococcus pneumoniae (GC 1894)": ">64 mg/L"
  },
  {
    "compound": "CC(C)=CCOc1cccc(C2OCC3OC(OC4C(CO)OC(Oc5ccc(CC6NC(=O)C(C(C)c7ccccc7)NC(=O)CNC(=O)C(CO)NC(=O)C(C(O)C7CNC(=N)N7C7OC(CO)C(O)C(O)C7O)NC(=O)C(C(O)C7CNC(=N)N7)NC6=O)cc5)C(O)C4O)C(O)C(O)C3O2)c1 (stereo not shown)",
    "MIC Streptococcus pneumoniae (GC 1894)": "<0.06 mg/L"
  },
  {
    "compound": "CSc1ccc(C2OCC3OC(OC4C(CO)OC(Oc5ccc(CC6NC(=O)C(C(C)c7ccccc7)NC(=O)CNC(=O)C(CO)NC(=O)C(C(O)C7CNC(=N)N7C7OC(CO)C(O)C(O)C7O)NC(=O)C(C(O)C7CNC(=N)N7)NC6=O)cc5)C(O)C4O)C(O)C(O)C3O2)cc1 (stereo not shown)",
    "MIC Streptococcus pneumoniae (GC 1894)": "<0.06 mg/L"
  },
  {
    "compound": "CC(c1ccccc1)C1NC(=O)CNC(=O)C(CO)NC(=O)C(C(O)C2CN(c3nc4ccccc4s3)C(=N)N2C2OC(CO)C(O)C(O)C2O)NC(=O)C(C(O)C2CNC(=Nc3nc4ccccc4s3)N2)NC(=O)C(Cc2ccc(OC3OC(CO)C(OC4OC(CO)C(O)C(O)C4O)C(O)C3O)cc2)NC1=O (stereo not shown)",
    "MIC Streptococcus pneumoniae (GC 1894)": ">64 mg/L"
  }
]
